Where these numbers come from: PubChem BioAssay AID1963860

tested on: CN0375-F725-PDC KRAS spheroid viability; experiment: Anticancer human tumor CN0375-F725-PDC patient-derived colon carcinoma cell line growth inhibition [KRAS2]; conditions: curve of first compound; second compound 1 µM; spheroids with HUVEC and MSC
property: IC50 (nM)

{"columns": ["compound", "uom", "result_comparator", "val"],
 "data": [
  ["CC1OCC2(CCN(c3cnc(Sc4ccnc(N)c4Cl)c(N)n3)CC2)C1N (stereo unspecified) + C=CC(=O)N1CCN(c2nc(OCC3CCCN3C)nc3c2CCN(c2cccc4cccc(C)c24)C3)CC1CC#N", "nM", "=", 8240],
  ["O=C(c1cc(Cc2n[nH]c(=O)c3ccccc23)ccc1F)N1CCN(C(=O)C2CC2)CC1 + CC1OCC2(CCN(c3cnc(Sc4ccnc(N)c4Cl)c(N)n3)CC2)C1N", "nM", ">", 10000],
  ["CC(=O)Nc1cccc(-n2c(=O)n(C3CC3)c(=O)c3c(Nc4ccc(I)cc4F)n(C)c(=O)c(C)c32)c1 + COc1cc2nc(C)nc(NC(C)c3cc(N)cc(C(F)(F)F)c3)c2cc1OC1CCOC1", "nM", "=", 1.85],
  ["CC(=O)Nc1cccc(-n2c(=O)n(C3CC3)c(=O)c3c(Nc4ccc(I)cc4F)n(C)c(=O)c(C)c32)c1 + CNCc1ccccc1-c1csc(C(C)Nc2nc(C)nc3cc(OC)c(OC)cc23)c1", "nM", "<", 0.1],
  ["Cn1nccc1Nc1nccc(-c2cc3c(s2)C(C)(C)N(CCN2CCOCC2)C3=O)n1 + C=CC(=O)N1CCN(c2nc(=O)n(-c3c(C)ccnc3C(C)C)c3nc(-c4c(O)cccc4F)c(F)cc23)C(C)C1", "nM", ">", 10000],
  ["CCNC(=O)CC1N=C(c2ccc(Cl)cc2)c2cc(OC)ccc2-n2c(C)nnc21 (stereo unspecified) + C=CC(=O)N1CCN(c2nc(OCC3CCCN3C)nc3c2CCN(c2cccc4cccc(C)c24)C3)CC1CC#N", "nM", "=", 6110],
  ["CCN1CCN(Cc2ccc(Nc3ncc(F)c(-c4cc(F)c5nc(C)n(C(C)C)c5c4)n3)nc2)CC1 + COc1cc2nc(C)nc(NC(C)c3cc(N)cc(C(F)(F)F)c3)c2cc1OC1CCOC1", "nM", ">", 1000],
  ["Cn1ncnc1[C@H]1c2n[nH]c(=O)c3cc(F)cc(c23)N[C@@H]1c1ccc(F)cc1 + COc1cc2nc(C)nc(NC(C)c3cc(N)cc(C(F)(F)F)c3)c2cc1OC1CCOC1", "nM", ">", 100],
  ["COc1cc(Nc2ncc3c(n2)-c2ccc(Cl)cc2C(c2c(F)cccc2OC)=NC3)ccc1C(=O)O + COc1cc2nc(C)nc(NC(C)c3cc(N)cc(C(F)(F)F)c3)c2cc1OC1CCOC1", "nM", ">", 10000],
  ["CC(C)n1nc(-c2ccc3oc(N)nc3c2)c2c(N)ncnc21 + C=CC(=O)N1CCN(c2nc(OCC3CCCN3C)nc3c2CCN(c2cccc4cccc(C)c24)C3)CC1CC#N", "nM", "=", 42.7],
  ["CC1COCCN1c1cc(-c2ccnn2C)c2ccnc(-c3ccn[nH]3)c2n1 (stereo unspecified) + CNCc1ccccc1-c1csc(C(C)Nc2nc(C)nc3cc(OC)c(OC)cc23)c1", "nM", "=", 127]
]}

---

tested on: CN0375-F725-PDC KRAS spheroid viability; assay: Anticancer human tumor CN0375-F725-PDC cell line growth inhibition [KRAS2]; conditions: second compound 1 µM; first compound 0.000316 µM; stronger effect = lower value; spheroids with HUVEC and MSC;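 also: spheroids exposed to agents for 7 days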
Field 'label' (enum: Fulfilled / Not fulfilled). Set to Fulfilled when viability, T/C is strictly under 80%; else Not fulfilled.

{"columns": ["compound", "subject_of_test", "label_value"],
 "data": [
  ["CC(=O)Nc1cccc(-n2c(=O)n(C3CC3)c(=O)c3c(Nc4ccc(I)cc4F)n(C)c(=O)c(C)c32)c1 + C=CC(=O)N1CCN(c2nc(OCC3CCCN3C)nc3c2CCN(c2cccc4cccc(C)c24)C3)CC1CC#N", "CN0375-F725-PDC KRAS spheroid viability", "Fulfilled"],
  ["CC(C)n1nc(-c2ccc3oc(N)nc3c2)c2c(N)ncnc21 + CC1OCC2(CCN(c3cnc(Sc4ccnc(N)c4Cl)c(N)n3)CC2)C1N", "CN0375-F725-PDC KRAS spheroid viability", "Not fulfilled"],
  ["CC(C)n1nc(-c2ccc3oc(N)nc3c2)c2c(N)ncnc21 + C=CC(=O)N1CCN(c2nc(=O)n(-c3c(C)ccnc3C(C)C)c3nc(-c4c(O)cccc4F)c(F)cc23)C(C)C1", "CN0375-F725-PDC KRAS spheroid viability", "Not fulfilled"],
  ["CC(C)n1nc(-c2ccc3oc(N)nc3c2)c2c(N)ncnc21 + CNCc1ccccc1-c1csc(C(C)Nc2nc(C)nc3cc(OC)c(OC)cc23)c1", "CN0375-F725-PDC KRAS spheroid viability", "Fulfilled"],
  ["CN(C)C/C=C/C(=O)Nc1cc2c(Nc3ccc(F)c(Cl)c3)ncnc2cc1O[C@H]1CCOC1 + COc1cc2nc(C)nc(NC(C)c3cc(N)cc(C(F)(F)F)c3)c2cc1OC1CCOC1", "CN0375-F725-PDC KRAS spheroid viability", "Not fulfilled"],
  ["CN(C)C/C=C/C(=O)Nc1cc2c(Nc3ccc(F)c(Cl)c3)ncnc2cc1O[C@H]1CCOC1 + C=CC(=O)N1CCN(c2nc(OCC3CCCN3C)nc3c2CCN(c2cccc4cccc(C)c24)C3)CC1CC#N", "CN0375-F725-PDC KRAS spheroid viability", "Not fulfilled"],
  ["CN(C)C/C=C/C(=O)Nc1cc2c(Nc3ccc(F)c(Cl)c3)ncnc2cc1O[C@H]1CCOC1 + CNCc1ccccc1-c1csc(C(C)Nc2nc(C)nc3cc(OC)c(OC)cc23)c1", "CN0375-F725-PDC KRAS spheroid viability", "Fulfilled"],
  ["CC(C)n1nc(-c2ccc3oc(N)nc3c2)c2c(N)ncnc21 + COc1cc2nc(C)nc(NC(C)c3cc(N)cc(C(F)(F)F)c3)c2cc1OC1CCOC1", "CN0375-F725-PDC KRAS spheroid viability", "Not fulfilled"],
  ["Cn1ncnc1[C@H]1c2n[nH]c(=O)c3cc(F)cc(c23)N[C@@H]1c1ccc(F)cc1 + COc1cc2nc(C)nc(NC(C)c3cc(N)cc(C(F)(F)F)c3)c2cc1OC1CCOC1", "CN0375-F725-PDC KRAS spheroid viability", "Not fulfilled"],
  ["Cn1ncnc1[C@H]1c2n[nH]c(=O)c3cc(F)cc(c23)N[C@@H]1c1ccc(F)cc1 + CC1OCC2(CCN(c3cnc(Sc4ccnc(N)c4Cl)c(N)n3)CC2)C1N", "CN0375-F725-PDC KRAS spheroid viability", "Not fulfilled"],
  ["CC(=O)Nc1cccc(-n2c(=O)n(C3CC3)c(=O)c3c(Nc4ccc(I)cc4F)n(C)c(=O)c(C)c32)c1 + CC1OCC2(CCN(c3cnc(Sc4ccnc(N)c4Cl)c(N)n3)CC2)C1N", "CN0375-F725-PDC KRAS spheroid viability", "Fulfilled"],
  ["Cn1ncnc1[C@H]1c2n[nH]c(=O)c3cc(F)cc(c23)N[C@@H]1c1ccc(F)cc1 + C=CC(=O)N1CCN(c2nc(OCC3CCCN3C)nc3c2CCN(c2cccc4cccc(C)c24)C3)CC1CC#N", "CN0375-F725-PDC KRAS spheroid viability", "Not fulfilled"],
  ["CN(C)C/C=C/C(=O)Nc1cc2c(Nc3ccc(F)c(Cl)c3)ncnc2cc1O[C@H]1CCOC1 + C=CC(=O)N1CCN(c2nc(=O)n(-c3c(C)ccnc3C(C)C)c3nc(-c4c(O)cccc4F)c(F)cc23)C(C)C1", "CN0375-F725-PDC KRAS spheroid viability", "Not fulfilled"],
  ["CC(C)n1nc(-c2ccc3oc(N)nc3c2)c2c(N)ncnc21 + C=CC(=O)N1CCN(c2nc(OCC3CCCN3C)nc3c2CCN(c2cccc4cccc(C)c24)C3)CC1CC#N", "CN0375-F725-PDC KRAS spheroid viability", "Not fulfilled"],
  ["Cn1ncnc1[C@H]1c2n[nH]c(=O)c3cc(F)cc(c23)N[C@@H]1c1ccc(F)cc1 + C=CC(=O)N1CCN(c2nc(=O)n(-c3c(C)ccnc3C(C)C)c3nc(-c4c(O)cccc4F)c(F)cc23)C(C)C1", "CN0375-F725-PDC KRAS spheroid viability", "Not fulfilled"]
]}

---

viability, T/C listing for selected compounds.
test system: CN0375-F725-PDC KRAS spheroid viability; assay: Anticancer human tumor CN0375-F725-PDC cell line growth inhibition [KRAS2]; settings: second compound 0.316 µM; first compound 0.316 µM; stronger effect = lower value; spheroids with HUVEC and MSC;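 also: spheroids exposed to agents for 7 days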

{"columns": ["compound", "uom", "viability, T/C"],
 "data": [
  ["CC(C)NCC(C(=O)N1CCN(c2ncnc3c2C(C)CC3O)CC1)c1ccc(Cl)cc1 (stereo not given) + COc1cc2nc(C)nc(NC(C)c3cc(N)cc(C(F)(F)F)c3)c2cc1OC1CCOC1", "%", 88.5],
  ["COc1cc2nccc(Oc3ccc(NC(=O)C4(C(=O)Nc5ccc(F)cc5)CC4)cc3)c2cc1OC + COc1cc2nc(C)nc(NC(C)c3cc(N)cc(C(F)(F)F)c3)c2cc1OC1CCOC1", "%", 90.2],
  ["COc1cc(Nc2ncc3c(n2)-c2ccc(Cl)cc2C(c2c(F)cccc2OC)=NC3)ccc1C(=O)O + CNCc1ccccc1-c1csc(C(C)Nc2nc(C)nc3cc(OC)c(OC)cc23)c1", "%", 88.4],
  ["CC(=O)OC12COC1CC(O)C1(C)C(=O)C(O)C3=C(C)C(OC(=O)C(O)C(NC(=O)OC(C)(C)C)c4ccccc4)CC(O)(C(OC(=O)c4ccccc4)C21)C3(C)C (stereo not given) + C=CC(=O)N1CCN(c2nc(=O)n(-c3c(C)ccnc3C(C)C)c3nc(-c4c(O)cccc4F)c(F)cc23)C(C)C1", "%", 93.1],
  ["CC1(C)CCC(CN2CCN(c3ccc(C(=O)NS(=O)(=O)c4ccc(NCC5CCOCC5)c([N+](=O)[O-])c4)c(Oc4cnc5[nH]ccc5c4)c3)CC2)=C(c2ccc(Cl)cc2)C1 + CC1OCC2(CCN(c3cnc(Sc4ccnc(N)c4Cl)c(N)n3)CC2)C1N", "%", 94.6],
  ["COC(=O)c1ccc2c(C(=Nc3ccc(N(C)C(=O)CN4CCN(C)CC4)cc3)c3ccccc3)c(O)[nH]c2c1 + C=CC(=O)N1CCN(c2nc(OCC3CCCN3C)nc3c2CCN(c2cccc4cccc(C)c24)C3)CC1CC#N", "%", 93.2],
  ["CC(C)NCC(C(=O)N1CCN(c2ncnc3c2C(C)CC3O)CC1)c1ccc(Cl)cc1 (stereo not given) + CNCc1ccccc1-c1csc(C(C)Nc2nc(C)nc3cc(OC)c(OC)cc23)c1", "%", 88.5],
  ["Cn1nccc1Nc1nccc(-c2cc3c(s2)C(C)(C)N(CCN2CCOCC2)C3=O)n1 + C=CC(=O)N1CCN(c2nc(OCC3CCCN3C)nc3c2CCN(c2cccc4cccc(C)c24)C3)CC1CC#N", "%", 70.3],
  ["CC1OCC2(CCN(c3cnc(Sc4ccnc(N)c4Cl)c(N)n3)CC2)C1N (stereo not given) + C=CC(=O)N1CCN(c2nc(OCC3CCCN3C)nc3c2CCN(c2cccc4cccc(C)c24)C3)CC1CC#N", "%", 81.8],
  ["CC1COCCN1c1cc(-c2ccnn2C)c2ccnc(-c3ccn[nH]3)c2n1 (stereo not given) + COc1cc2nc(C)nc(NC(C)c3cc(N)cc(C(F)(F)F)c3)c2cc1OC1CCOC1", "%", 74.8],
  ["CC(=O)OC12COC1CC(O)C1(C)C(=O)C(O)C3=C(C)C(OC(=O)C(O)C(NC(=O)OC(C)(C)C)c4ccccc4)CC(O)(C(OC(=O)c4ccccc4)C21)C3(C)C (stereo not given) + CC1OCC2(CCN(c3cnc(Sc4ccnc(N)c4Cl)c(N)n3)CC2)C1N", "%", 74.7],
  ["CC(=O)OC12COC1CC(O)C1(C)C(=O)C(O)C3=C(C)C(OC(=O)C(O)C(NC(=O)OC(C)(C)C)c4ccccc4)CC(O)(C(OC(=O)c4ccccc4)C21)C3(C)C (stereo not given) + C=CC(=O)N1CCN(c2nc(OCC3CCCN3C)nc3c2CCN(c2cccc4cccc(C)c24)C3)CC1CC#N", "%", 85.2],
  ["CC(C)NCC(C(=O)N1CCN(c2ncnc3c2C(C)CC3O)CC1)c1ccc(Cl)cc1 (stereo not given) + CC1OCC2(CCN(c3cnc(Sc4ccnc(N)c4Cl)c(N)n3)CC2)C1N", "%", 89.9],
  ["CC(C)NCC(C(=O)N1CCN(c2ncnc3c2C(C)CC3O)CC1)c1ccc(Cl)cc1 (stereo not given) + C=CC(=O)N1CCN(c2nc(OCC3CCCN3C)nc3c2CCN(c2cccc4cccc(C)c24)C3)CC1CC#N", "%", 94.6],
  ["O=C(c1cc(Cc2n[nH]c(=O)c3ccccc23)ccc1F)N1CCN(C(=O)C2CC2)CC1 + CNCc1ccccc1-c1csc(C(C)Nc2nc(C)nc3cc(OC)c(OC)cc23)c1", "%", 96.8],
  ["CCNC(=O)CC1N=C(c2ccc(Cl)cc2)c2cc(OC)ccc2-n2c(C)nnc21 (stereo not given) + CC1OCC2(CCN(c3cnc(Sc4ccnc(N)c4Cl)c(N)n3)CC2)C1N", "%", 68.5],
  ["CC1COCCN1c1cc(-c2ccnn2C)c2ccnc(-c3ccn[nH]3)c2n1 (stereo not given) + CC1OCC2(CCN(c3cnc(Sc4ccnc(N)c4Cl)c(N)n3)CC2)C1N", "%", 72.9],
  ["COC(=O)c1ccc2c(C(=Nc3ccc(N(C)C(=O)CN4CCN(C)CC4)cc3)c3ccccc3)c(O)[nH]c2c1 + COc1cc2nc(C)nc(NC(C)c3cc(N)cc(C(F)(F)F)c3)c2cc1OC1CCOC1", "%", 86.3],
  ["CCN1CCN(Cc2ccc(Nc3ncc(F)c(-c4cc(F)c5nc(C)n(C(C)C)c5c4)n3)nc2)CC1 + COc1cc2nc(C)nc(NC(C)c3cc(N)cc(C(F)(F)F)c3)c2cc1OC1CCOC1", "%", 92.8],
  ["COc1cc2nccc(Oc3ccc(NC(=O)C4(C(=O)Nc5ccc(F)cc5)CC4)cc3)c2cc1OC + C=CC(=O)N1CCN(c2nc(OCC3CCCN3C)nc3c2CCN(c2cccc4cccc(C)c24)C3)CC1CC#N", "%", 85.9]
]}
